test system: OVCAR-3 ovarian; test: NCI-60 one-dose screen, 48 h; conditions: 10 µM unless noted
Compounds without any hit were thinned out: in the full panel of roughly 83,000, 20% have a hit. Activity calls are given as the source filed them. Rule for the calls: active = growth percent below 10; inactive = the rest.
Result category, one only: t = active, f = inactive

Reference set (8 entries):
• C/C(=N/O)c1ccc(NC(=O)Cn2nc(-c3ccc(Cl)cc3)nc2N)cc1 = f
• COC1OCC(OS(=O)(=O)c2ccc(C)cc2)C(OC(=O)c2ccccc2)C1OC(=O)c1ccccc1 (centres undefined) = t
• CCCCOc1c(N)cccc1C(=O)OCCN(CC)CC = f
• Cl[C@@H]1CCO[C@H](c2cc3ccccc3c3ccccc23)C1 = f
• O=C(Nc1ccc(-n2ccc3c(NC(=O)c4ccccc4)nccc32)cc1)Nc1ccc(Cl)c(Cl)c1 = t
• Cc1ccc2oc(=O)cc(C3C(C#N)=C(N)Oc4c3ccc3ccccc43)c2c1 (centres undefined) = f
• CC(C)CCC[C@@H](C)[C@H]1CC[C@H]2[C@@H]3CC=C4N(c5ccccc5)C(=O)CC[C@]4(C)[C@H]3CC[C@]12C = f
• Clc1ccc(CN2COc3c(ccc4cccnc34)C2)cc1Cl = t

Prompt line: Per the records of this test, what outcome belongs to CCCCOc1nc2ccc(Cl)cc2cc1/C=C/C(=O)/C=C/c1ccc(OC)cc1 ?
Response line: f

Prompt line: Per the records of this test, what outcome belongs to C#C[C@@]1(O)[C@@H](CO)O[C@@H](n2cc(Br)c3c(Cl)ccnc32)[C@@H]1O ?
Response line: t

Prompt line: Per the records of this test, what outcome belongs to COc1ccc(OCC(O)CN2CCN(c3ccc(Cl)cc3)CC2)cc1 (centres undefined) ?
Response line: f

Prompt line: Per the records of this test, what outcome belongs to C#CC(=O)/C=C/CCCCCCC#CC(=O)CCC(=O)C#CCCCCCC/C=C/C(=O)C#C ?
Response line: t

Prompt line: Per the records of this test, what outcome belongs to CCN(CC)CCN1C(=O)c2c(c3c4ccccc4[nH]c3c3[nH]c4ccccc4c23)C1=O ?
Response line: f

Prompt line: Per the records of this test, what outcome belongs to CCN(CC)CCNc1ccc([N+](=O)[O-])c2sc3cc(Cl)ccc3c(=O)c12 ?
Response line: f

Prompt line: Per the records of this test, what outcome belongs to CCn1c(SCC(=O)c2ccc(Br)cc2)nnc1-c1cc2c([nH]c3ccccc32)c(-c2cccc(O)c2)n1 ?
Response line: f

Prompt line: Per the records of this test, what outcome belongs to CCCCn1c(-c2cccc(OC)c2)nc2cc(OC)c(OC)cc2c1=O ?
Response line: f

Prompt line: Per the records of this test, what outcome belongs to COc1ccc(Cn2cc3c(c2-c2cc(OC)c(OC)c(OC)c2)CCc2c(CO)noc2-3)cc1 ?
Response line: t

Prompt line: Per the records of this test, what outcome belongs to CC/C(=C(\CC)c1ccc(OCCN(CC)CC)cc1)c1ccc(OCCN(CC)CC)cc1 ?
Response line: f

Prompt line: Per the records of this test, what outcome belongs to O=C1OC(c2ccc(-c3ccccc3)cc2)=C/C1=C/C=C/c1ccccc1 ?
Response line: f

Prompt line: Per the records of this test, what outcome belongs to O=C(NCCNc1nccc(-c2c(-c3cccc(O)c3)nc3sccn23)n1)Nc1cc(C(F)(F)F)cc(C(F)(F)F)c1 ?
Response line: f

Prompt line: Per the records of this test, what outcome belongs to Cc1ccc2nc(-c3ccc(-n4on4-c4ccc(/C=C/c5ccc(-n6on6-c6ccc(-c7nc8ccc(C)cc8s7)cc6)cc5S(=O)(=O)O)c(S(=O)(=O)O)c4)cc3)sc2c1 ?
Response line: f

Prompt line: Per the records of this test, what outcome belongs to CC1CCC(C(C)C)C(NN)C1 (centres undefined) ?
Response line: f

Prompt line: Per the records of this test, what outcome belongs to Nc1nc2ccc(CNc3ccc(C(=O)NC(CC(=O)O)C(=O)O)cc3)cc2c(=O)[nH]1 (centres undefined) ?
Response line: f

Prompt line: Per the records of this test, what outcome belongs to CN(C)c1ccc(/C=c2\s/c(=C\C(=O)C(C)(C)C)[nH]c2=O)cc1 ?
Response line: f

Prompt line: Per the records of this test, what outcome belongs to Cc1ccc(=O)n(-c2ccc(Br)cc2F)c1 ?
Response line: f
